organism: Rattus norvegicus; test: DrugMatrix - Regimen: Daily Repeat; type: toxicity, organism-based, Sprague-Dawley; parameters: regimen Daily Repeat, gender Male, age 6-8 weeks; settings: in vivo, iv, 0 mg/kg, 120 h, tissue Blood, dose level Control, time 5 day, vehicle 100 % SALINE
endpoint: MONOCYTE (%)
Express the result in % but write the number alone.

Which MONOCYTE value belongs to CC[C@]1(O)C[C@@H]2CN(CCc3c([nH]c4ccccc34)[C@@](C(=O)OC)(c3cc4c(cc3OC)N(C)[C@H]3[C@@](O)(C(=O)OC)[C@H](OC(C)=O)[C@]5(CC)C=CCN6CC[C@]43[C@@H]65)C2)C1 ?
0.5

Next entry: COc1cccc2c1C(=O)c1c(O)c3c(c(O)c1C2=O)C[C@@](O)(C(=O)CO)C[C@@H]3O[C@H]1C[C@H](N)[C@H](O)[C@H](C)O1
0.67

Next entry: CCC1=C[C@@H]2CN(C1)Cc1c([nH]c3ccccc13)[C@@](C(=O)OC)(c1cc3c(cc1OC)N(C)[C@H]1[C@@](O)(C(=O)OC)[C@H](OC(C)=O)[C@]4(CC)C=CCN5CC[C@]31[C@@H]54)C2
0.67

* * *

organism: Rattus norvegicus; assay: DrugMatrix - Regimen: Daily Repeat; assay type: toxicity, organism-based, Sprague-Dawley; design: regimen Daily Repeat, gender Male, age 6-8 weeks; settings: in vivo, po, 0 mg/kg, 72 h, tissue Plasma, route oral GAVAGE, dose level Control, time 3 day, vehicle .5 % CMC
For each record, write down the corresponding LACTATE DEHYDROGENASE.

Which LACTATE DEHYDROGENASE value belongs to O=[N+]([O-])c1ccccc1 ?
107.33 u/L

Next entry: OC(CCN1CCCCC1)(c1ccccc1)C1CCCCC1 (stereo unspecified)
155.5 u/L

Next entry: CC(C)[C@H]1CC[C@H](C(=O)N[C@H](Cc2ccccc2)C(=O)O)CC1 [NATEGLINIDE]
372.67 u/L

Next entry: CN1C(=O)COc2c(C(=O)NC3CN4CCC3CC4)cc(Cl)cc21 (stereo unspecified)
597.5 u/L

Next entry: C#C[C@]1(O)CC[C@H]2[C@@H]3CCc4cc(OC)ccc4[C@H]3CC[C@@]21C
154.33 u/L

Next entry: C[C@]1(Cn2ccnn2)[C@H](C(=O)O)N2C(=O)C[C@H]2S1(=O)=O
241.67 u/L

Next entry: Clc1ccc2c(c1)C(N1CCNCC1)=Nc1ccccc1O2
236.5 u/L

Next entry: CO[C@H]1/C=C/O[C@@]2(C)Oc3c(C)c(O)c4c(c3C2=O)C2=NC3(CCN(CC(C)C)CC3)NC2=C(NC(=O)/C(C)=C\C=C\[C@H](C)[C@H](O)[C@@H](C)[C@@H](O)[C@@H](C)[C@H](OC(C)=O)[C@@H]1C)C4=O
154.33 u/L

Next entry: CNC(=C[N+](=O)[O-])NCCSCc1ccc(CN(C)C)o1
154.33 u/L

Next entry: CC(=O)CC(c1ccccc1)c1c(O)c2ccccc2oc1=O (stereo unspecified)
294.83 u/L

Next entry: C[C@](O)(CS(=O)(=O)c1ccc(F)cc1)C(=O)Nc1ccc(C#N)c(C(F)(F)F)c1 [(R)-BICALUTAMIDE]
982.5 u/L

* * *

species on record: Rattus norvegicus; experiment: DrugMatrix - Regimen: Daily Repeat; assay type: toxicity, organism-based, Sprague-Dawley; design: regimen Daily Repeat, gender Male, age 6-8 weeks; conditions: in vivo, ip, 40 mg/kg, […], tissue Blood, route intraperitoneal, dose level High, time 14 day, vehicle 100 % SALINE
endpoint: ABSOLUTE BASOPHIL

Which ABSOLUTE BASOPHIL value belongs to CCN[C@@H]1C[C@H](N)[C@@H](O[C@H]2OC(CN)=CC[C@H]2N)[C@H](O)[C@H]1O[C@H]1OC[C@](C)(O)[C@H](NC)[C@H]1O [NETILMICIN] ?
76 cells/µL

* * *

organism: Rattus norvegicus; experiment: DrugMatrix - Regimen: Daily Repeat; type: toxicity, organism-based, Sprague-Dawley; parameters: regimen Daily Repeat, gender Male, age 6-8 weeks; conditions: in vivo, po, 0 mg/kg, 120 h, tissue Blood, route oral GAVAGE, dose level Control, time 5 day, […]
endpoint: ERYTHROCYTE COUNT (x10E6/uL)
Express the result in x10E6/uL but write the number alone.

Which ERYTHROCYTE COUNT value belongs to O=NN(CCCl)C(=O)NCCCl ?
5.51

Next entry: CC/C(=C(/CC)c1ccc(O)cc1)c1ccc(O)cc1
5.36

Next entry: C[C@H]1O[C@@H](O[C@H]2[C@@H](O)C[C@H](O[C@H]3[C@@H](O)C[C@H](O[C@H]4CC[C@@]5(C)[C@H](CC[C@@H]6[C@@H]5CC[C@]5(C)[C@@H](C7=CC(=O)OC7)CC[C@]65O)C4)O[C@@H]3C)O[C@@H]2C)C[C@H](O)[C@@H]1O
5.61

Next entry: CCOC(=O)C1=C(C)NC(C)=C(C(=O)OC)C1c1cccc([N+](=O)[O-])c1 (stereo not drawn)
5.74

Next entry: COc1ccc2[nH]c([S+]([O-])Cc3ncc(C)c(OC)c3C)nc2c1 (stereo not drawn)
5.58

Next entry: Clc1ccc(Cl)cc1
6.62

Next entry: CCCCCCCCc1ccc(O)cc1
5.82

Next entry: CC(=O)Nc1ccc(O)cc1
5.51

* * *

species: Rattus norvegicus; experiment: DrugMatrix - Regimen: Daily Repeat; type: toxicity, organism-based, Sprague-Dawley; design: regimen Daily Repeat, gender Male, age 6-8 weeks; conditions: in vivo, iv, 0 mg/kg, 72 h, tissue Plasma, dose level Control, time 3 day, vehicle 100 % SALINE
# label = condition met if ALANINE AMINOTRANSFERASE < 60 u/L else condition not met

Is the reported ALANINE AMINOTRANSFERASE for CC[C@]1(O)C[C@@H]2CN(CCc3c([nH]c4ccccc34)[C@@](C(=O)OC)(c3cc4c(cc3OC)N(C)[C@H]3[C@@](O)(C(=O)OC)[C@H](OC(C)=O)[C@]5(CC)C=CCN6CC[C@]43[C@@H]65)C2)C1 strictly below 60 u/L?
condition met

Next entry: COc1cccc2c1C(=O)c1c(O)c3c(c(O)c1C2=O)C[C@@](O)(C(=O)CO)C[C@@H]3O[C@H]1C[C@H](N)[C@@H](O)[C@H](C)O1 [EPIRUBICIN]
condition met

Next entry: CCC1=C[C@@H]2CN(C1)Cc1c([nH]c3ccccc13)[C@@](C(=O)OC)(c1cc3c(cc1OC)N(C)[C@H]1[C@@](O)(C(=O)OC)[C@H](OC(C)=O)[C@]4(CC)C=CCN5CC[C@]31[C@@H]54)C2
condition met

Next entry: CCc1c2c(nc3ccc(OC(=O)N4CCC(N5CCCCC5)CC4)cc13)-c1cc3c(c(=O)n1C2)COC(=O)[C@]3(O)CC
condition met

Next entry: CC(=O)N[C@@H]1[C@H](Oc2c3cc4cc2Oc2ccc(cc2Cl)[C@@H](O[C@@H]2O[C@@H](CO)[C@@H](O)[C@H](O)[C@@H]2NC(C)=O)[C@@H]2NC(=O)[C@H](NC(=O)[C@@H]4NC(=O)[C@H]4NC(=O)[C@@H](Cc5ccc(c(Cl)c5)O3)NC(=O)[C@H](N)c3ccc(O)c(c3)Oc3cc(O)cc4c3)c3ccc(O)c(c3)-c3c(O[C@H]4O[C@H](CO)[C@@H](O)[C@@H](O)[C@@H]4O)cc(O)cc3[C@@H](C(=O)O)NC2=O)O[C@@H](CO)[C@@H](O)[C@@H]1O
condition not met

* * *

organism: Rattus norvegicus; test: DrugMatrix - Regimen: Daily Repeat; type: toxicity, organism-based, Sprague-Dawley; parameters: regimen Daily Repeat, gender Male, age 6-8 weeks; details: in vivo, po, 10 mg/kg, 72 h, tissue Blood, route oral GAVAGE, dose level Low, time 3 day, […]
endpoint: NUCLEATED RED BLOOD CELLS

Which NUCLEATED RED BLOOD CELLS value belongs to CCOC(=O)C1=C(C)NC(C)=C(C(=O)OC)C1c1cccc([N+](=O)[O-])c1 (centres undefined) [NITRENDIPINE] ?
0 /100WBC

Next entry: COCCOC(=O)C1=C(C)NC(C)=C(C(=O)OC(C)C)C1c1cccc([N+](=O)[O-])c1 (centres undefined) [NIMODIPINE]
0 /100WBC

Next entry: CC(C)CC(N(C)C)C1(c2ccc(Cl)cc2)CCC1 (centres undefined) [SIBUTRAMINE]
0.33 /100WBC

Next entry: COc1ccc2cc([C@H](C)C(=O)O)ccc2c1 [NAPROXEN]
0.33 /100WBC

* * *

For each record, write down the corresponding PLATELET COUNT.
organism: Rattus norvegicus; assay: DrugMatrix - Regimen: Daily Repeat; type: toxicity, organism-based, Sprague-Dawley; set-up: regimen Daily Repeat, gender Male, age 6-8 weeks; conditions: in vivo, po, 0 mg/kg, 120 h, tissue Blood, route oral GAVAGE, dose level Control, time 5 day, vehicle 100 % WATER
Express the result in x10E3/uL but write the number alone.

Which PLATELET COUNT value belongs to COC(=O)C1=C(C)NC(C)=C(C(=O)OCC(C)C)C1c1ccccc1[N+](=O)[O-] (centres undefined) ?
802

Next entry: Nc1ccn([C@@H]2CS[C@H](CO)O2)c(=O)n1
1141

Next entry: Cc1ncc([N+](=O)[O-])n1CCO
1186.67

Next entry: CC(C)NCC(O)COc1cccc2ccccc12 (centres undefined)
1270.67

Next entry: CC(C)(C)c1ccc(C(=O)CCCN2CCC(OC(c3ccccc3)c3ccccc3)CC2)cc1
1044

Next entry: CC(C)C[C@H](NC(=O)[C@@H](O)[C@H](N)Cc1ccccc1)C(=O)O
1281.17

Next entry: C[N+](C)(C)CCO.[Cl-] [CHOLINE CHLORIDE]
1285.33

Next entry: ClC(Cl)Cl [CHLOROFORM]
1186.67

Next entry: C[C@@H]1C[C@@H]([C@H](O)CC2CC(=O)NC(=O)C2)C(=O)[C@@H](C)C1 [CYCLOHEXIMIDE]
1117

Entry source: ChEMBL document CHEMBL3885881
